Reference for the values: paper PMC10716131

# Target system: DDB1:CRBN complex, full-length human CRBN (residues 1–442) with N-terminal biotinylated Avi-tag, co-expressed … (human, UniProt Q96SW2 1-442; Q16531 1-1140, biotin on the Avi-tag (BirA, 100% efficiency))
# Sequence (Q96SW2 whole entry, chain 1 of 2, the tested form may be a part): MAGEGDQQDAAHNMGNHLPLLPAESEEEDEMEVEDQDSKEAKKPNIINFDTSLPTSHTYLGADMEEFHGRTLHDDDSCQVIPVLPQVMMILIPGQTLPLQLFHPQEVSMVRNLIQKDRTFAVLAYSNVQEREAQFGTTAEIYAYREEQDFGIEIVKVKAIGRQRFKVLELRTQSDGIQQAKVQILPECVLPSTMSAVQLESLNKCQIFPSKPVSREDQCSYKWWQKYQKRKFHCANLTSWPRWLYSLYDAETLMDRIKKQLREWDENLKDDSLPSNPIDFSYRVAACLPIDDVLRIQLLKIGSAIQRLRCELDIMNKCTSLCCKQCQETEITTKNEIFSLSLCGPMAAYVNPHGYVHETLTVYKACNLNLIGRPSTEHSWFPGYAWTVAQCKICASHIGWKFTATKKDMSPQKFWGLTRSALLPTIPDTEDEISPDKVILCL
# Sequence (Q16531 whole entry, chain 2 of 2, the tested form may be a part): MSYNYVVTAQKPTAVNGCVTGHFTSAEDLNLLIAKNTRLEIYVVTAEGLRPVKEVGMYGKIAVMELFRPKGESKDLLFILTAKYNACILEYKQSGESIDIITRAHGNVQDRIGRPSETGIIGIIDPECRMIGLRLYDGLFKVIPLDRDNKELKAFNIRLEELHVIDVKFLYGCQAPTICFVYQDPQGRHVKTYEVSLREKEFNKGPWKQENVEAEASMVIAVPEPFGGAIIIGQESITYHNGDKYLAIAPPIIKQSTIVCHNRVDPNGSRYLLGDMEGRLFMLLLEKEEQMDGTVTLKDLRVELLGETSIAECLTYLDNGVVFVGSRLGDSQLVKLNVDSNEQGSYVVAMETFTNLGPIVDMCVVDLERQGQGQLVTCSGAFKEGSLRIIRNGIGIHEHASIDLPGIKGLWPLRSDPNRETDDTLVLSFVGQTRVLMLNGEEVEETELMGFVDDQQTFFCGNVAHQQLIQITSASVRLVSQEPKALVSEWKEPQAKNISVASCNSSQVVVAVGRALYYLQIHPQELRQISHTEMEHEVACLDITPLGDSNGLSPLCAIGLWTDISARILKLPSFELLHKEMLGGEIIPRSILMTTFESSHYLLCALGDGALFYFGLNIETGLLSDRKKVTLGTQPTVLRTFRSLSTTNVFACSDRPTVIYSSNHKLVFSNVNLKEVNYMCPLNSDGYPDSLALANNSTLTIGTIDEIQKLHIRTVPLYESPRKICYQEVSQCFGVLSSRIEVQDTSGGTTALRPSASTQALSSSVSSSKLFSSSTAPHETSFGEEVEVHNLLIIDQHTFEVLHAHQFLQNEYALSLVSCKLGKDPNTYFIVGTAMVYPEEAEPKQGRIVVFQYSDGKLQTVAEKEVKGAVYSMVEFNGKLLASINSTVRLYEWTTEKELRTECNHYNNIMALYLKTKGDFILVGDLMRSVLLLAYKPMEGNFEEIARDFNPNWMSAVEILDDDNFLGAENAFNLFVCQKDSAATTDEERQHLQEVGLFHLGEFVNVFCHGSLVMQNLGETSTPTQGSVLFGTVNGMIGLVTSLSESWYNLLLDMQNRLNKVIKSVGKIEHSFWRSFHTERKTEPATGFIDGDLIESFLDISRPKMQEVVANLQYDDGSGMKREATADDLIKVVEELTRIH
# Method notes: SPR; CC-220
Listing: Kd of selected binders
Respond numerically; units are µM and should not be typed.

What value of measured Kd is listed for Human SALL4 ZF1-2(379–432) (domain or fragment) LYKHKCKYCSKVFGTDSSLQIHLRSHTGERPFVCSVCGHRFTTKGNLKVHFHRH ?
150

// next item, Kd requested
For the binder Human SALL4 ZF1-2(370–454) (domain or fragment) DVKPKDEAALYKHKCKYCSKVFGTDSSLQIHLRSHTGERPFVCSVCGHRFTTKGNLKVHFHRHPQVKANPQLFAEFQDKVAAGNG , what Kd is on record?
0.28
